tested on: Plasmodium falciparum; assay: Screen against P. falciparum Asexual Blood Stage (ABS), at 5uM; format: functional, Dd2; details: tested at 5 uM
Hit rate of the full screen: of about 65,000 compounds, about 2,100 (3.2%) showed an effect of 50% or more. The median lay at about -52%. For the sample, strong results were picked, then their nearest neighbours and some compounds at random.
Strictly below -30% in INHIBITION: fulfilled. Otherwise: not fulfilled.

>>> assignedclass("CS(=O)(=O)N1CCC2(CCCN(Cc3ccccn3)C2)C1 (stereo unspecified)")
"fulfilled"
>>> assignedclass("c1ccc(CN2CCCC3(CCN(Cc4cccs4)C3)C2)nc1 (stereo unspecified)")
"not fulfilled"
>>> assignedclass("c1ccc(OCC2C[C@@H]3[C@@H](C2)OCCN3CC2CCOCC2)nc1 (stereo partly specified)")
"fulfilled"
>>> assignedclass("c1ccc(CN2CCC3(CC2)CC(Nc2nccs2)CO3)nc1 (stereo unspecified)")
"not fulfilled"
>>> assignedclass("O=C(O)[C@H]1CN(Cc2ccccc2)C[C@@H]1C(=O)c1ccccc1")
"fulfilled"
>>> assignedclass("CS(=O)(=O)NC[C@H]1OC[C@@H]2CN(Cc3cccnc3)CC[C@@H]21")
"fulfilled"
>>> assignedclass("CCCN1CCN(C(=O)c2cccc(C)n2)[C@H]2CS(=O)(=O)C[C@H]21")
"fulfilled"
>>> assignedclass("c1ccc(CO[C@@H]2CO[C@@]3(CCN(Cc4ccccn4)C3)C2)nc1")
"fulfilled"
>>> assignedclass("c1ccc(CO[C@H]2CO[C@@]3(CCN(Cc4ccoc4)C3)C2)nc1")
"not fulfilled"
>>> assignedclass("COc1ccccc1C1SCC(=O)Nc2c1c(=O)[nH]n2C1CCCCC1 (stereo unspecified)")
"fulfilled"
>>> assignedclass("c1ccc(CN2CCC3(CC2)CCN(Cc2cccnc2)C3)nc1")
"not fulfilled"

----------
tested on: Plasmodium falciparum; experiment: Screen against P. falciparum Asexual Blood Stage (ABS), at 5uM; type: functional, Dd2; settings: tested at 5 uM
The campaign covered roughly 65,000 compounds. About 2,100 (3.2%) showed an effect of 50% or more. The median lay at about -52%. The full list was thinned out, with strong results kept by preference.
As shown below, each of these molecules has a reported INHIBITION value.
endpointName: INHIBITION (%)

>>> obsvalue("Cc1c(CN2CCCC(C(=O)c3ccccc3)C2)cc(C#N)n1C (stereo unspecified)")
44.6
>>> obsvalue("O=C(c1ccccc1)C1CCN(Cc2cc3c(cc2O)CCC3)CC1")
90.1
>>> obsvalue("Cc1n[nH]c2c1C(c1cnn(C)c1)SCC(=O)N2 (stereo unspecified)")
-51.7
>>> obsvalue("CC(Cn1cccn1)NCc1nc(-c2ccsc2)no1 (stereo unspecified)")
-40
>>> obsvalue("CN(Cc1ccco1)[C@@H]1CN(Cc2ccsc2)C[C@@H]2CCCO[C@@H]21")
76
>>> obsvalue("COc1cccc(C2SCC(=O)Nc3n[nH]cc32)c1OC(C)C (stereo unspecified)")
-75.3
>>> obsvalue("OC[C@@H]1[C@H]2CN(c3ccccn3)CCN2C[C@H]1c1ccccc1")
41.3
>>> obsvalue("Cc1cccc(CN2C[C@@H]3CCCO[C@@H]3[C@H](NS(C)(=O)=O)C2)n1")
-63.9
>>> obsvalue("Cc1ccc(C)c(OCCNC(=O)[C@@H]2CCCCN2)c1")
79.4
>>> obsvalue("NC(=O)CN1CCCN(C(=O)Cc2ccc3c(c2)OCCO3)CC1")
-57.5
>>> obsvalue("Cc1ccc(CN2C[C@@H]3CCCO[C@@H]3[C@H](N(C)Cc3ccco3)C2)s1")
74.2

----------
tested on: Plasmodium falciparum; assay: Screen against P. falciparum Asexual Blood Stage (ABS), at 5uM; type: functional, Dd2; conditions: tested at 5 uM
In all, about 65,000 compounds went through this assay and about 2,100 (3.2%) showed an effect of 50% or more. The median lay at about -52%. This is one part of a sample in which strong results are shown more often than they occur.
# INHIBITION per entry
endpointName: INHIBITION (%)

>>> obsvalue("Cc1ccc(Sc2ccc(CN3CCC4(CCCNC4=O)C3)o2)cc1 (stereo unspecified)")
73.1
>>> obsvalue("c1ccc(NC[C@@H]2CCC[C@@H]3CN(Cc4nccs4)C[C@@H]32)nc1")
57.1
>>> obsvalue("Cn1ccnc1NC[C@@H]1CCC[C@@H]2CN(Cc3cccnc3)C[C@@H]21")
-26.3
>>> obsvalue("CC(C)(C)c1cn(C[C@H]2CC3CCN2C[C@@H]3C(=O)NC2CC2)nn1 (stereo partly specified)")
-148
>>> obsvalue("Cc1oc(-c2ccco2)nc1CC(=O)N1CCN(C2CCC2)CC1")
-14.4
>>> obsvalue("CCCN1CCN(C(=O)c2ccnc(N)c2)[C@H]2CS(=O)(=O)C[C@H]21")
-88.3
>>> obsvalue("CC(C)NC(=O)[C@H]1CN(Cc2ccccc2)C[C@@H]1C(=O)c1ccccc1")
-90.6
>>> obsvalue("CCCN1CCN(C(=O)c2ccc(Cl)cn2)[C@H]2CS(=O)(=O)C[C@H]21")
-54.2
>>> obsvalue("c1cncc(CN2C[C@H]3CCC[C@@H](CNc4cnccn4)[C@H]3C2)c1")
-3.45
>>> obsvalue("CCN(CC)CCNC(=O)c1ccc(-n2ccc3ccccc32)s1")
90.5
>>> obsvalue("c1ccc(NC[C@@H]2CCC[C@@H]3CN(c4ncccn4)C[C@@H]32)nc1")
72.9
>>> obsvalue("NC1CCN(C2CCN(c3ccc(-c4ccco4)cc3)CC2)CC1")
80.3
>>> obsvalue("Cc1nnc(N2CCCC3(CN(Cc4ccncc4)CCO3)C2)o1 (stereo unspecified)")
-78.8
>>> obsvalue("Cc1cc(C)n2nc(C(=O)N[C@H]3C[C@H]4CN(C)CCN4C3)cc2n1")
-13.9
>>> obsvalue("Cc1n[nH]c2c1C(c1ccc(Br)cc1)SCC(=O)N2 (stereo unspecified)")
-33.1
>>> obsvalue("CNC1CCN(C2CCN(c3ccc(-c4ccco4)cc3)CC2)CC1")
86.4
>>> obsvalue("O=C(NCCCN1CCCCC1)c1ccc(-n2ccc3ccccc32)s1")
79
>>> obsvalue("c1ccc(NC[C@@H]2CCC[C@@H]3CN(Cc4csnn4)C[C@@H]32)nc1")
62
>>> obsvalue("c1ccc(NC[C@@H]2CCC[C@@H]3CN(Cc4cc[nH]n4)C[C@@H]32)nc1")
-29.8
>>> obsvalue("O=C1CC2(CCN(Cc3ccc(Cl)s3)C2)C(=O)N1 (stereo unspecified)")
-155
>>> obsvalue("NCC1CCN(C2CCN(c3ccc(-c4ccco4)cc3)CC2)C1 (stereo unspecified)")
91

----------
tested on: Plasmodium falciparum; test: Screen against P. falciparum Asexual Blood Stage (ABS), at 5uM; format: functional, Dd2; details: tested at 5 uM
The whole screen tested about 65,000 compounds, of which about 2,100 (3.2%) showed an effect of 50% or more. The median lay at about -52%. The sample as a whole holds a higher share of strong results than the screen did.
Quick reference for INHIBITION among some molecules
endpointName: INHIBITION (%)

>>> obsvalue("Cc1ccc(CN2C[C@H]3OC(=O)N(Cc4ccccn4)[C@H]3C2)o1")
-74.6
>>> obsvalue("CCN1CC2(CC1=O)CN(Cc1ccccn1)CCN(C(C)=O)C2 (centres undefined)")
-40.2
>>> obsvalue("c1ccc(Sc2ccc3c(c2)OCO3)c(CNC2=NCCN2)c1")
83.7
>>> obsvalue("CO[C@@H]1CC[C@H]2[C@H]1OCCN2Cc1ccccn1")
-64.6
>>> obsvalue("O=C(CN1CCN(C(=O)Cc2ccc3c(c2)OCCO3)CC1)NC1CC1")
-148
>>> obsvalue("Fc1cnc(N2CC3(CCN(CC4CC4)C3)C2)nc1")
-62.7
>>> obsvalue("Cc1c(C2SCC(=O)Nc3c2c(O)nn3C2CCCCC2)cnn1C (centres undefined)")
-53.5
>>> obsvalue("O=C1C[C@H]2[C@H](CCN2Cc2ccccn2)N1CC1CC1")
-90.1
>>> obsvalue("O=C1CSC(c2ccc(Cl)cc2Cl)c2c(n(C3CCOCC3)[nH]c2=O)N1 (centres undefined)")
-37.1
>>> obsvalue("COc1cc(CNCC(O)c2ccc(F)c(F)c2)cc2c1OCO2 (centres undefined)")
78.2
>>> obsvalue("c1ccc(COC[C@H]2CC[C@H]3[C@H](CCN3Cc3ccco3)O2)nc1")
-63.4
>>> obsvalue("CC(=O)N1CCC2(CC1)c1ncc(-c3cccnc3)n1CCN2C")
-45.5
>>> obsvalue("O=C(O)CN1CCC(F)(F)C2(CCN(c3ccccn3)C2)C1 (centres undefined)")
-77.3
>>> obsvalue("COc1ccccc1CCN[C@@H]1c2ccccc2C2(CCNCC2)[C@H]1O")
81.5
>>> obsvalue("CN(Cc1ccco1)C[C@H]1OC[C@@H]2CCN(Cc3ccccn3)C[C@@H]21")
71.1
>>> obsvalue("CN1CCn2c(-c3ccccc3)cnc2C12CCN(CC1CC1)CC2")
80.9
>>> obsvalue("COCCO[C@@H]1C[C@H]2CN(C(=O)c3ccc(C)nc3)CCN2C1")
-15.2
>>> obsvalue("CCC1(CC)Cc2ccccc2-c2nc(CN(C)C)nc(O)c21")
74.6
>>> obsvalue("c1ccc(CN2CC[C@H]3CO[C@H](CNc4ncccn4)[C@H]3C2)nc1")
-30.4
>>> obsvalue("COC[C@H]1CC[C@@H]2[C@@H](CCN2Cc2ccco2)O1")
-128
>>> obsvalue("CN(C)C(=O)C1OC2(CCNCC2)c2ccccc21 (centres undefined)")
-73
>>> obsvalue("CCN1C[C@H]2CCN(Cc3ccncc3)C(=O)[C@@H]2C1")
-66.4
>>> obsvalue("Cc1ccc(-c2nc(CNC(C)CCO)[nH]c2-c2ccccn2)cc1 (centres undefined)")
86
>>> obsvalue("Cn1nc(-c2ccccc2)cc1[C@H]1CN2CC[C@H]1C[C@@H]2CNS(C)(=O)=O")
15
>>> obsvalue("Cc1cc(C)c(CNCC(O)c2ccc(F)c(F)c2)c(C)c1 (centres undefined)")
93
>>> obsvalue("c1ccc(C2CCN(c3ncnc4c3CCNC4)CC2)cc1")
74.4
>>> obsvalue("CCS(=O)(=O)NC[C@]12COC[C@H]1CN(Cc1cccnc1OC)C2")
-27.6
>>> obsvalue("COc1ccccc1CCN(C)Cc1nc(N)nc(N(C)C)n1")
69.9
>>> obsvalue("COc1ccc(CN2C[C@@H]3OCCN(c4ncccn4)[C@@H]3C2)cc1")
-2.3
>>> obsvalue("Cc1ccc(CN2C[C@@H]3CCN(Cc4ccncc4)C(=O)[C@H]3C2)s1")
-13.4
>>> obsvalue("CNC(=O)[C@@H]1CN(Cc2ccccc2)C[C@H]1C(=O)c1ccc(F)cc1")
-109
>>> obsvalue("COc1cc(CNCC(O)c2cccc(F)c2)cc2c1OCO2 (centres undefined)")
92.4
>>> obsvalue("COc1cc(CNCC(O)c2ccc(C)cc2)cc2c1OCO2 (centres undefined)")
74
>>> obsvalue("CCOc1ccc(C2SCC(=O)Nc3c2c(=O)[nH]n3C(CC)CC)cc1 (centres undefined)")
-144
>>> obsvalue("c1cnc(N2CCOCC3(CNCCO3)C2)nc1 (centres undefined)")
-4.23
>>> obsvalue("COCCN1CC[C@]2(CN(Cc3cccnc3)C[C@H]2C)C1=O")
25.1
>>> obsvalue("CO[C@@H]1CCN(c2ncc(F)cn2)[C@@H]2CN(CC3CC3)C[C@@H]21")
6.1
>>> obsvalue("O=C(NC1CC1)[C@H]1CN(Cc2ccccc2)C[C@@H]1C(=O)c1ccccc1")
-154
>>> obsvalue("COc1cc(CNCC(O)c2ccc(C)cc2)cc2c1OCCO2 (centres undefined)")
48.2
>>> obsvalue("O=C(CC(F)(F)F)N1C[C@H]2CCN[C@H]2C1")
-86.8
>>> obsvalue("CO[C@H]1CCN(c2ncc(F)cn2)[C@@H]2CN(Cc3ccco3)C[C@H]12")
63.7
>>> obsvalue("O=C(C1CC1)N1CCOC2(CCNCC2)C1")
-22.2
>>> obsvalue("CC(C)c1ocnc1C(=O)N1CCC2(CC1)OCCO2")
-39.3
>>> obsvalue("COCCCNc1c(C#N)c2c(c3nncn13)CN(C)CC2")
-104
